# TEST DESCRIPTION: Equilibrium solubility of the compound in phosphate buffer by LC-MS analysis
Task for the reader: assign each of the following compounds its reported solubility thermodynamic.
Numbers only, in µM.

Below: 6 compounds and their reported solubility thermodynamic.
compound=Cc1noc(C)c1S(=O)(=O)Nc1c(N2CCC(C)CC2)c(=O)c1=O readout_unit=µM obs_value=773
compound=Cc1noc(C)c1S(=O)(=O)Nc1c(N2CCC(NCc3ccc(F)cc3)CC2)c(=O)c1=O readout_unit=µM obs_value=52
compound=COc1ccc(CN2CCN(c3c(NS(=O)(=O)c4c(C)noc4C)c(=O)c3=O)CC2)cc1 readout_unit=µM obs_value=497
compound=Cc1noc(C)c1S(=O)(=O)Nc1c(N2CCN(CCc3ccccc3)CC2)c(=O)c1=O readout_unit=µM obs_value=560
compound=CO[C@H]1/C=C/O[C@@]2(C)Oc3c(C)c(O)c4c(O)c(c(/C=N/N5CCN(C)CC5)c(O)c4c3C2=O)NC(=O)/C(C)=C\C=C\[C@H](C)[C@H](O)[C@@H](C)[C@@H](O)[C@@H](C)[C@H](OC(C)=O)[C@@H]1C readout_unit=µM obs_value=751
compound=Cc1noc(C)c1C(=O)Nc1c(N2CCC(Cc3ccccc3)CC2)c(=O)c1=O readout_unit=µM obs_value=508

For each entry beneath this line, provide reported solubility thermodynamic.
1. Cc1noc(C)c1S(=O)(=O)Nc1c(N2CCCC(Cc3ccccc3)C2)c(=O)c1=O (stereo not drawn)
2. Cc1noc(C)c1S(=O)(=O)Nc1c(N2CCC(CCc3ccccc3)CC2)c(=O)c1=O
3. Cc1noc(C)c1S(=O)(=O)Nc1c(N2CCC(c3ccccc3)CC2)c(=O)c1=O
4. Cc1noc(C)c1S(=O)(=O)Nc1c(N2CCC(N(C)CC3CCCCC3)CC2)c(=O)c1=O
5. CCCC/C(C)=C/C=C(\C)C(=O)c1c(O)cc(C(C)CC/C=C/NC(=O)OC)oc1=O (racemic)

Solution:
985
636
763
12.2
679

These measurements were taken from ChEMBL document CHEMBL3425489.
